Tested on: P388 leukemia ip, CD2F1 mice, survival T/C
test_details: NCI In Vivo Anticancer Drug Screen. Data for tumor model P388 Leukemia (intraperitoneal) in CD2F1 (CDF1) mice
test_context: endpoint: median survival time; dose: 200.0 mg/kg/injection; schedule: Q01DX001 (ip); vehicle: Klucel (hydroxypropylcellulose) (HPC); higher = longer survival
Inconclusive results and toxic doses are left out.
endpoint: T/C

Here `Cn1c2ccc(Cl)cc2c2c3ncncc3ccc21` was tested on P388 leukemia ip, CD2F1 mice, survival T/C, and its T/C came to 91 % of control

Here `Fc1cccc(-n2nc3c(c2-c2cccnc2)CCCc2ccccc2-3)c1` was tested on P388 leukemia ip, CD2F1 mice, survival T/C, and its T/C came to 102 % of control

Here `Cc1ccc(S(=O)(=O)N/N=C/c2c(Cl)nc3n2CCS3)cc1` was tested on P388 leukemia ip, CD2F1 mice, survival T/C, and its T/C came to 94 % of control

Here `CSC(=S)n1nc(C)c(N=Nc2ccccc2[N+](=O)[O-])c1C` was tested on P388 leukemia ip, CD2F1 mice, survival T/C, and its T/C came to 96 % of control

Here `Cc1nn2c(-c3snnc3C)nnc2s1` was tested on P388 leukemia ip, CD2F1 mice, survival T/C, and its T/C came to 100 % of control

Here COC(=O)/C(=C(\C)C=O)N1C(=O)C(NC(=O)c2ccccc2)C1SSc1nc2ccccc2s1 (configuration not stated) was tested on P388 leukemia ip, CD2F1 mice, survival T/C, and its T/C came to 95 % of control

Here `c1ccc2c3c(ccc2c1)Oc1ccc2ccccc2c1C3` was tested on P388 leukemia ip, CD2F1 mice, survival T/C, and its T/C came to 97 % of control

Here `[O-]c1nn(-c2ccccc2)n[n+]1-c1ccccc1` was tested on P388 leukemia ip, CD2F1 mice, survival T/C, and its T/C came to 100 % of control

Here `CCOP(O)(=S)OCC.[Sm]` was tested on P388 leukemia ip, CD2F1 mice, survival T/C, and its T/C came to 88 % of control

Here COc1ccc2c(c1)C13C(=O)OC4(C)OC(C)(CC41)C3C2=O (configuration not stated) was tested on P388 leukemia ip, CD2F1 mice, survival T/C, and its T/C came to 104 % of control

Here `CN1CCNc2c1cc(O)c1c2C(=O)c2ccccc2C1=O` was tested on P388 leukemia ip, CD2F1 mice, survival T/C, and its T/C came to 94 % of control

Here `COc1ccc2c(c1)[C@@]13CCCC[C@H]1[C@H](N(C)CC3)C21CC1` was tested on P388 leukemia ip, CD2F1 mice, survival T/C, and its T/C came to 102 % of control
